Items are presented alongside their recorded pIC50.
TARGET_ENTITY: human BCL6 BTB domain (Homo sapiens, UniProt P41182)
TEST_NAME: biochemical
MEASUREMENT_CONDITIONS: BCL6 TR-FRET IC50 individual replicates, single replicates; 10 nM BCL6 for early examples, else 1 nM
pIC50: −log10 of the molar value.
OBSERVABLE: pIC50

> print(dat)
                                   compound  measured.result
1  CNC(=O)COc1cc2cc(Nc3nc(N4CCC(C(=O)N(C)C)CC4)ncc3Cl)cc(OC)c2n(C)c1=O [BI-3812, reference compound]             8.52
2  C[C@H]1COCc2c(c3cc(Nc4ccnc(Cl)c4C#N)ccc3n(C)c2=O)N1             5.63

* * *

Items are presented alongside their recorded Aq. Sol.
TEST_NAME: HPLC kinetic solubility assay
Type: physicochemical
MEASUREMENT_CONDITIONS: kinetic solubility by HPLC, 10 mM phosphate-buffered saline pH 7.4, 1% DMSO
OBSERVABLE: Aq. Sol (µM)

> print(dat)
                                   compound  observable  unit.label  measured.result
1  CC1CCc2c(c3cc(Nc4ccnc(Cl)c4C#N)ccc3n(C)c2=O)N1 (stereo not drawn) [Compound 5b]     Aq. Sol          µM              1.8
2  CCNc1cc(=O)[nH]c2ccc(Nc3ccnc(Cl)c3C#N)cc12 [Compound 2]     Aq. Sol          µM              9.7
3  CC1COc2c(c3cc(Nc4ccnc(Cl)c4C#N)ccc3n(C)c2=O)N1 (stereo not drawn) [Compound 6]     Aq. Sol          µM               11
4  Cn1c(=O)c2c(c3cc(Nc4ccnc(Cl)c4C#N)ccc31)NCCCO2 [Compound 10]     Aq. Sol          µM               12
5  N#Cc1c(Nc2ccc3[nH]c(=O)c4c(c3c2)NCCC4)ccnc1Cl [Compound 5a]     Aq. Sol          µM               12
6  Cn1c(=O)cc(NC(C)(C)c2ncc(C3CC3)cn2)c2cc(Nc3ccnc(Cl)c3C#N)ccc21 [Compound 3]     Aq. Sol          µM               31

* * *

Items are presented alongside their recorded Aq. Sol.
TEST_NAME: NMR kinetic solubility assay
Type: physicochemical
MEASUREMENT_CONDITIONS: kinetic solubility by NMR, HEPES buffer pH 8, 4% DMSO
OBSERVABLE: Aq. Sol (µM)

> print(dat)
                                   compound  observable  unit.label  measured.result
1  Cn1c(=O)c2c(c3cc(Nc4ccnc(Cl)c4C#N)ccc31)NC(C(F)F)CCO2 (stereo not drawn) [Compound 11e]     Aq. Sol          µM              119
2  CC(C)C1CCOc2c(c3cc(Nc4ccnc(Cl)c4C#N)ccc3n(C)c2=O)N1 (stereo not drawn) [Compound 11d]     Aq. Sol          µM               40
3  CC1CC(C)(C)Oc2c(c3cc(Nc4ccnc(Cl)c4C#N)ccc3n(C)c2=O)N1 (stereo not drawn) [Compound 13b]     Aq. Sol          µM               12
4  CC1Nc2c(c(=O)n(C)c3ccc(Nc4ccnc(Cl)c4C#N)cc23)OCC1(C)C (stereo not drawn) [Compound 13c]     Aq. Sol          µM               31
5  Cn1c(=O)c2c(c3cc(Nc4ccnc(Cl)c4C#N)ccc31)NC(C1CCC1)CCO2 (stereo not drawn) [Compound 11c]     Aq. Sol          µM               26
6  CC1Nc2c(c(=O)n(C)c3ccc(Nc4ccnc(Cl)c4C#N)cc23)OCC12CC2 (stereo not drawn) [Compound 13d]     Aq. Sol          µM              126
7  C[C@H]1C[C@H](C)Oc2c(c3cc(Nc4ccnc(Cl)c4C#N)ccc3n(C)c2=O)N1 [Compound 13a]     Aq. Sol          µM              114
8  CCC1CCOc2c(c3cc(Nc4ccnc(Cl)c4C#N)ccc3n(C)c2=O)N1 (stereo not drawn) [Compound 11b]     Aq. Sol          µM               96

* * *

TARGET_ENTITY: human BCL6 BTB domain (Homo sapiens)
TEST_NAME: biochemical
MEASUREMENT_CONDITIONS: read-out: BCL6 TR-FRET IC50 individual replicates; single replicates; 10 nM BCL6 for early examples, else 1 nM
pIC50: −log10 of the molar value.
Items are presented alongside their recorded pIC50.
OBSERVABLE: pIC50

> print(dat)
                                   molecule                         target.entity  observable  measured.result
1  Cn1c(=O)c2c(c3cc(Nc4ccnc(Cl)c4C#N)ccc31)NC(C1CCC1)CCO2 (stereo not drawn) [Compound 11c]  human BCL6 BTB domain (Homo sapiens)       pIC50             5.37
2  C[C@H]1COC(=O)c2c(c3cc(Nc4ccnc(Cl)c4C#N)ccc3n(C)c2=O)N1  human BCL6 BTB domain (Homo sapiens)       pIC50             7.01
3  Cn1c(=O)c2c(c3cc(Nc4ccnc(Cl)c4C#N)ccc31)N[C@@H](C1CC1)C(F)(F)CO2  human BCL6 BTB domain (Homo sapiens)       pIC50             8.41

* * *

TARGET_ENTITY: human BCL6 BTB domain (Homo sapiens, UniProt P41182)
TEST_NAME: biochemical
MEASUREMENT_CONDITIONS: BCL6 TR-FRET mean pIC50, mean of replicates
OBSERVABLE: IC50 (nM)

> print(dat)
                                   compound  unit.label  measured.result
1  CNC(=O)COc1cc2cc(Nc3nc(N4CCC(C(=O)N(C)C)CC4)ncc3Cl)cc(OC)c2n(C)c1=O [BI-3812, reference compound]          nM             3.02
2  CNC(=O)COc1cc2cc(Nc3nc(N4C[C@H](C)C[C@H](C)C4)ncc3Cl)ccc2n(C)c1=O [BI-3802, reference compound]          nM             33.1

* * *

TARGET_ENTITY: human BCL6 BTB domain (Homo sapiens)
TEST_NAME: biochemical
MEASUREMENT_CONDITIONS: mean of replicates
Procedure: 6. Supplementary tables … S-17 Table S1: summary statistics and individual replicate values … S-17 […] 1. Supplementary experimental: protein production, purification and crystallography 1.1 BCL6 constructs used for assays and crystallography A first construct of BCL6 BTB domain, which we will refer to as Trx-6His-HRV3C-BCL6, was obtained […] 3C protease cleavage site. For the TR-FRET assay, the Trx-6His-HRV3C-BCL6 protein construct was […] IC50 values were determined using […]
OBSERVABLE: BCL6 TR-FRET mean pIC50

> print(dat)
                                    compound  measured.result
 1  C[C@H]1COCc2c(c3cc(Nc4ccnc(Cl)c4C#N)ccc3n(C)c2=O)N1             5.65
 2  Cn1c(=O)c2c(c3cc(Nc4ccnc(Cl)c4C#N)ccc31)NC(C(F)F)CCO2 (stereo not drawn) [Compound 11e]             5.69
 3  CCNc1cc(=O)[nH]c2ccc(Nc3ccnc(Cl)c3C#N)cc12             5.88
 4  Cn1c(=O)c2c(c3cc(Nc4ccnc(Cl)c4C#N)ccc31)NC(C1CCC1)CCO2 (stereo not drawn) [Compound 11c]             5.37
 5  CC(C)C1CCOc2c(c3cc(Nc4ccnc(Cl)c4C#N)ccc3n(C)c2=O)N1 (stereo not drawn) [Compound 11d]             5.51
 6  CCC1CCOc2c(c3cc(Nc4ccnc(Cl)c4C#N)ccc3n(C)c2=O)N1 (stereo not drawn) [Compound 11b]             6.21
 7  C[C@H]1COC(=O)c2c(c3cc(Nc4ccnc(Cl)c4C#N)ccc3n(C)c2=O)N1             7.03
 8  CC1CCc2c(c3cc(Nc4ccnc(Cl)c4C#N)ccc3n(C)c2=O)N1 (stereo not drawn)             5.68
 9  CCNc1c(C)c(=O)n(C)c2ccc(Nc3ccnc(Cl)c3C#N)cc12             5.25
10  Cn1c(=O)cc(NC(C)(C)c2ncc(C3CC3)cn2)c2cc(Nc3ccnc(Cl)c3C#N)ccc21             7.58
11  Cn1c(=O)c2c(c3cc(Nc4ccnc(Cl)c4C#N)ccc31)NCCCO2             4.73
12  CC1Nc2c(c(=O)n(C)c3ccc(Nc4ccnc(Cl)c4C#N)cc23)OCC12CC2 (stereo not drawn) [Compound 13d]              5.8
13  Cn1c(=O)c2c(c3cc(Nc4ccnc(Cl)c4C#N)ccc31)N[C@H](C1CC1)C(F)(F)CO2             6.31
14  CC1COc2c(c3cc(Nc4ccnc(Cl)c4C#N)ccc3n(C)c2=O)N1 (stereo not drawn)             5.88
15  N#Cc1c(Nc2ccc3[nH]c(=O)c4c(c3c2)NCCC4)ccnc1Cl             5.21
